Target: Rat α3β2 (Rattus norvegicus, UniProt P04757+P12390)
Construct: expressed in transfected cells; host or cells: Xenopus laevis oocytes injected with subunit cRNAs; clones from Dr. Jim Boulter (UCLA)
Sequence (P04757 26-499): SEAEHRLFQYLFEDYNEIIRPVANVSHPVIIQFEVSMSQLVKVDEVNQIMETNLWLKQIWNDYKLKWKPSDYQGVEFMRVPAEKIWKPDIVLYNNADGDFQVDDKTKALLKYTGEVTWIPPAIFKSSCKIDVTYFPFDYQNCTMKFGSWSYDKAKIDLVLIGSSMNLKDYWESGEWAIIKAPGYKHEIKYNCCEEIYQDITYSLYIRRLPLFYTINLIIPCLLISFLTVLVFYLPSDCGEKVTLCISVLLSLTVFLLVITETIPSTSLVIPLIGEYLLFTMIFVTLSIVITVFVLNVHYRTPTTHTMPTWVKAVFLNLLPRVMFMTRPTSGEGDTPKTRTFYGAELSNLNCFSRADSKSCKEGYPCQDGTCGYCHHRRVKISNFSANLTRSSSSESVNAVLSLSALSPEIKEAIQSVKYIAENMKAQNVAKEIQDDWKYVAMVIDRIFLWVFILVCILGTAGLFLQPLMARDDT
Sequence (P12390 25-500): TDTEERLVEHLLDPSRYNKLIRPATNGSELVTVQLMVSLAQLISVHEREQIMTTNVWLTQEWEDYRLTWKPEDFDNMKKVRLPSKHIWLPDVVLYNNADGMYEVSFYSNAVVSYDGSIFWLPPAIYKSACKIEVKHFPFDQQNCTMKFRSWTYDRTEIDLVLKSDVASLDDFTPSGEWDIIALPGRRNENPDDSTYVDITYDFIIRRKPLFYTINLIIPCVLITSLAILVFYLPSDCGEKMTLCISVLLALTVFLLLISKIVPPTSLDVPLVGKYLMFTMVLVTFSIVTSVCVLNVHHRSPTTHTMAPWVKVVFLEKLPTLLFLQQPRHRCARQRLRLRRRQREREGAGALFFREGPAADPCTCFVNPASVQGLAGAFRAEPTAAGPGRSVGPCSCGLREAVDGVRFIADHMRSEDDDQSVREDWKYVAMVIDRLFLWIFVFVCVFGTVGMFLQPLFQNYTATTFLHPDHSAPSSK
Experiment: Voltage clamp of Xenopus oocytes expressing rat α3β2 nAChR
Type: cell-based
Details: decrease in peak current amplitude, 30 μM ACh co-applied with TMPH; read-out: IC50 (peak)
Procedure: Mature (>9 cm) female Xenopus laevis African frogs (NASCO, Ft. Atkinson, Wis.) were used as a source of oocytes. Prior to surgery, frogs were anesthetized by placing the animal in a 1.5 g/l solution of MS222 (3-aminobenzoic acid ethyl ester) for 30 minutes. […] Rat neuronal nAChR clones and mouse muscle nAChR cDNA clones were used. […] The corrected clone was expressed as above in Xenopus oocytes with β2 and β3 and compared to the wild-type α3 co-expressed with β2 and β3. […]
pIC50: −log10 of the molar value.
observation.type: pIC50

>>> df
                                  molecule  observation_type  data_value
0  CCCCCCC(=O)OC1CC(C)(C)NC(C)(C)C1 [TMPH]             pIC50        5.43
